target: HCV NS3 helicase (Hepatitis C virus genotype 1b); construct: full-length NS3 (1-631), purified at Array BioPharma; experiment: HCV Helicase Prompt FRET Assay (Example A); format: biochemical; settings: Table 28, compounds made using Scheme 35; read-out: IC50 Activity
METRIC: IC50

> print(dat)
                                 smiles.str  data.value
1  CC(C)c1ccc(Cn2cc(CC(=O)O)c3ccc(-c4cc(N)cc(N)c4)cc32)cc1     < 10 µM

====

target: HCV NS3 helicase (Hepatitis C virus genotype 1b); construct: full-length NS3 (1-631), purified at Array BioPharma; experiment: HCV Helicase Prompt FRET Assay (Example A); assay type: biochemical; conditions: Table 25, compounds made using Scheme 32; read-out: IC50 Activity
METRIC: IC50

> print(dat)
                                 smiles.str  metric   data.value
1  CCOC(=O)Cc1cn(Cc2ccc(Oc3ccc(Cl)cc3)cc2)c2cc(-c3cc(N)cc(N)c3)ccc12    IC50  10 to 50 µM
2  CCOC(=O)Cc1cn(Cc2ccc(Oc3ccc(C(F)(F)F)cc3)cc2)c2cc(-c3cc(N)cc(N)c3)ccc12    IC50  10 to 50 µM
3  CCOC(=O)Cc1cn(Cc2ccc(Oc3cccc(OCC)c3)cc2)c2cc(-c3cc(N)cc(N)c3)ccc12    IC50  10 to 50 µM
4  CCOC(=O)Cc1cn(Cc2ccc(Oc3cccc(Cl)c3)cc2)c2cc(-c3cc(N)cc(N)c3)ccc12    IC50      < 10 µM
5  CCOC(=O)Cc1cn(Cc2ccc(Oc3cccc(OC)c3)cc2)c2cc(-c3cc(N)cc(N)c3)ccc12    IC50  10 to 50 µM

====

// values below are reported IC50
biological target: HCV NS3 helicase (Hepatitis C virus genotype 1b); construct: full-length NS3 (1-631), purified at Array BioPharma; assay: HCV Helicase Prompt FRET Assay (Example A); assay type: biochemical; conditions: HCV NS3 helicase; tables do not say whether Example A or Example B assay; read-out: IC50 Activity
METRIC: IC50

> print(dat)
                                   compound   data.value
1  CC(=O)Nc1ccc(-c2ccc(Cc3[nH]c4ccccc4c3CC(=O)O)cc2)cc1  10 to 50 µM
2  O=C(O)Cc1c(Cc2ccc(-c3ccc(Cl)cc3Cl)cc2)[nH]c2ccccc12      < 10 µM
3  O=C(O)Cc1c(C(=O)c2ccc(-c3ccc(C(=O)O)cc3)cc2)[nH]c2ccccc12  10 to 50 µM
4  Cc1cc(NC(=O)CSc2ccccc2)ccc1-n1cc(CC(=O)O)c2ccccc21  10 to 50 µM
5  O=C(O)Cc1c(C(=O)c2cccc(Oc3ccccc3)c2)n(Cc2ccccc2)c2ccccc12      < 10 µM
6  CCOC(=O)Cc1cn(Cc2ccc(Oc3ccc(Cl)cc3)cc2)c2cc(-c3cccc(OC(C)=O)c3)ccc12      > 50 µM
7  Cc1cc([N+](=O)[O-])ccc1-n1cc(C(Cc2ccccc2)C(=O)O)c2cc(Br)ccc21 (centres unmarked)      < 10 µM
8  O=C(O)Cc1cn(Cc2ccc(Oc3ccc(F)c(F)c3)cc2)c2ccccc12      < 10 µM

====

molecular target: HCV NS3 helicase (Hepatitis C virus genotype 1b, UniProt P26663); construct: full-length NS3 (1-631), purified at Array BioPharma; assay: HCV Helicase Prompt FRET Assay (Example A); format: biochemical; settings: Table 35, compounds made using Scheme 53; read-out: IC50 Activity
Sequence (P26663 1027-1657): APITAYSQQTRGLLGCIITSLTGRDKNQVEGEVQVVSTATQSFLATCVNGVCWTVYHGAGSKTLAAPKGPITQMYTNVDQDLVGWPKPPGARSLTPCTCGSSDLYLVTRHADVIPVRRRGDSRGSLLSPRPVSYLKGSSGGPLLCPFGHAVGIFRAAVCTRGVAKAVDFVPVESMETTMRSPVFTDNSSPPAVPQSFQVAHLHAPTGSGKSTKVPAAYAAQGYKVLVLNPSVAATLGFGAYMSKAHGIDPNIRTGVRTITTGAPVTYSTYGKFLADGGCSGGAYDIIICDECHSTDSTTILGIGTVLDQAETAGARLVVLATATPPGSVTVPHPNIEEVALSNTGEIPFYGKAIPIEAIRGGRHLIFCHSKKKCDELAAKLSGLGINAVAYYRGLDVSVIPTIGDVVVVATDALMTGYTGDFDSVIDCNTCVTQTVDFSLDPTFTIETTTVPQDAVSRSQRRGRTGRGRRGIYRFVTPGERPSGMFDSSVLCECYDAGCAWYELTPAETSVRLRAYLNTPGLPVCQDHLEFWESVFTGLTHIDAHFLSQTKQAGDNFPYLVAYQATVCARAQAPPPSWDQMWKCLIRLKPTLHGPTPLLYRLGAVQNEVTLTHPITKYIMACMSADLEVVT
pIC50: −log10 of the molar value.
METRIC: pIC50

> print(dat)
                                 smiles.str    data.value
1  Nc1cc(N)cc(-c2ccc3c(CC(=O)O)cn(Cc4csc5ccc(F)cc45)c3c2)c1        > 5.00
2  CCOC(=O)Cc1cn(Cc2csc3ccc(F)cc23)c2cc(-c3cc([N+](=O)[O-])cc([N+](=O)[O-])c3)ccc12        < 4.30
3  Cc1ccc2c(Cn3cc(CC(=O)O)c4ccc(-c5cc(N)cc(N)c5)cc43)cccc2n1        < 4.30
4  CCOC(=O)Cc1cn(Cc2cccc3sc(Cl)nc23)c2cc(-c3cc([N+](=O)[O-])cc([N+](=O)[O-])c3)ccc12  4.30 to 5.00

====

target: HCV NS3 helicase (Hepatitis C virus genotype 1b, UniProt P26663); construct: full-length NS3 (1-631), purified at Array BioPharma; test: HCV Helicase Prompt FRET Assay (Example A); format: biochemical; settings: HCV NS3 helicase; tables do not say whether Example A or Example B assay; read-out: IC50 Activity
METRIC: IC50

> print(dat)
                                 smiles.str  metric   data.value
1  O=C(O)Cc1c(Cc2cccc(-c3ccc(Cl)c(Cl)c3)c2)oc2ccccc12    IC50      < 10 µM
2  O=C(O)Cc1c(C(=O)c2ccc(-c3ccc(Cl)cc3)cc2)[nH]c2ccccc12    IC50  10 to 50 µM
3  Cn1c(C(=O)Cc2ccc(-c3ccccc3)cc2)c(CC(=O)O)c2ccccc21    IC50  10 to 50 µM
4  Cc1ccc(-c2ccc(Cc3[nH]c4ccccc4c3CC(=O)O)cc2)cc1Cl    IC50      < 10 µM

====

// values below are reported pIC50
Molecular target: HCV NS3 helicase (Hepatitis C virus genotype 1b, UniProt P26663)
Construct: full-length NS3 (1-631), purified at Array BioPharma
Assay: HCV Helicase Prompt FRET Assay (Example A)
Assay type: biochemical
Conditions: HCV NS3 helicase; tables do not say whether Example A or Example B assay; read-out: IC50 Activity
Method: Test compounds were diluted to 2.5 mM by adding 6 uL of a 10 mM solution of the compound to 18 uL of DMSO in a 384-well Costar polypropylene plate. Serial dilutions (2.5×) were performed in the plate using DMSO as the diluent. 1 ul of solution was transferred from each well to a new 384-well Costar polypropylene plate. […] The ATP solution was prepared in MilliQ water, pH adjusted to approximately 7 with NaOH. […] The concentration was determined via A260 (ext. coeff=15,400 M^−1cm^−1). […]
pIC50: −log10 of the molar value.
METRIC: pIC50

> print(dat)
                                   compound  metric    data.value
1  CCOC(=O)Cc1cn(Cc2ccc(Oc3cccc(OC)c3)cc2)c2cc(-c3cccc(OC(C)=O)c3)ccc12 [Example 602]   pIC50  4.30 to 5.00
2  O=C(O)Cc1cn(Cc2cccc(-c3cncnc3)c2)c2ccc(OCc3ccccc3)cc12 [Example 119]   pIC50  4.30 to 5.00
3  CC(C)c1ccc(Cn2c(C(=O)Nc3ccc(S(C)(=O)=O)cc3)c(CC(=O)O)c3ccccc32)cc1 [Example 461]   pIC50        > 5.00
4  CCn1c(Cc2csc3ccc(Cl)cc23)c(CC(=O)O)c2ccc(OCc3ccccc3)cc21 [Example 370]   pIC50        > 5.00
5  Cc1cc([N+](=O)[O-])ccc1-n1cc(CP(=O)(O)O)c2cc(Br)ccc21 [Example 313]   pIC50  4.30 to 5.00
6  O=C(O)Cc1c(Cc2cccc(-c3cccc(C(F)(F)F)c3)c2)[nH]c2ccccc12 [Example 296]   pIC50        > 5.00
7  COC(=O)C=Cc1cn(-c2ccc([N+](=O)[O-])cc2C)c2cnc(OCc3ccccc3)cc12 [Example 329]   pIC50        < 4.30
8  OC1CCCN(c2ccc3ccn(Cc4csc5ccc(Cl)cc45)c3c2)C1 (centres unmarked) [Example 742]   pIC50  4.30 to 5.00

====

biological target: HCV NS3 helicase (Hepatitis C virus genotype 1b, UniProt P26663); construct: full-length NS3 (1-631), purified at Array BioPharma; assay: HCV Helicase Prompt FRET Assay (Example A); assay type: biochemical; conditions: HCV NS3 helicase; tables do not say whether Example A or Example B assay; read-out: IC50 Activity
pIC50: −log10 of the molar value.
// values below are reported pIC50
METRIC: pIC50

> print(dat)
                                    compound    data.value
 1  O=C(O)Cc1cn(Cc2ccc(Oc3c(F)cccc3F)cc2)c2ccccc12        > 5.00
 2  COc1cccc(-c2cccc(Cc3[nH]c4ccccc4c3CC(=O)O)c2)c1        > 5.00
 3  CCOC(=O)Cc1cn(Cc2ccc(Oc3ccc(C(F)(F)F)cc3)cc2)c2cc(-c3cccc(OC(C)=O)c3)ccc12  4.30 to 5.00
 4  Oc1nnc(Cc2cn(Cc3csc4ccc(Cl)cc34)c3ccccc23)[nH]1  4.30 to 5.00
 5  CN(c1cccc(Cn2cc(CC(=O)O)c3ccccc32)c1)c1ccc(C(F)(F)F)cc1C(F)(F)F  4.30 to 5.00
 6  O=C(O)Cc1c(Cc2ccc(-c3ccccc3Cl)cc2)[nH]c2ccccc12        > 5.00
 7  CSc1ccccc1-c1ccc(Cc2[nH]c3ccccc3c2CC(=O)O)cc1        > 5.00
 8    O=C(O)Cc1cn(Cc2ccc(Cl)s2)c2ccc(Br)cc12  4.30 to 5.00
 9        O=C(O)c1cccc2c1c1ccccc1n2Cc1ccccc1        < 4.30
10  CC(C)c1ccc(Cn2c(C(=O)NCc3cccc(Cl)c3)c(CC(=O)O)c3ccccc32)cc1        > 5.00
11  O=C(O)Cc1cn(Cc2cccc(Oc3ccc(Cl)cc3)c2)c2ccccc12        > 5.00
12  O=C(O)C(Cc1c[nH]c2ccc(Br)cc12)c1c[nH]c2ccc(Br)cc12 (stereo not drawn)  4.30 to 5.00
13  O=C(O)C(=O)c1cn(Cc2csc3ccc(Cl)cc23)c2cc(N3CCCC(O)C3)ccc12 (stereo not drawn)        > 5.00
14  O=C(Cc1cn(Cc2cccc(OCc3ccccc3)c2)c2ccc(OCc3ccccc3)cc12)NS(=O)(=O)c1ccccc1        > 5.00
15  CN(Cc1cccc(F)c1)c1ccc(-n2cc(CC(=O)O)c3ccccc32)cc1        > 5.00
16  CC(C)c1ccc(Cn2cc(C(Cc3ccccc3)C(=O)O)c3ccccc32)cc1 (stereo not drawn)        > 5.00
17  CC(C)N(c1cccc(Cn2cc(CC(=O)O)c3ccccc32)c1)c1ccccc1C(F)(F)F        > 5.00
18  CC(C)c1ccc(Cn2c(C(=O)NCc3ccc(Oc4ccccc4)cc3)c(CC(=O)O)c3cc(Br)ccc32)cc1        > 5.00
19  NC(=O)Cc1c(-c2ccccc2)n(Cc2csc3ccc(Cl)cc23)c2ccccc12  4.30 to 5.00
20  O=C(O)Cc1cn(Cc2csc3ccc(Cl)cc23)c2cc(Br)ccc12  4.30 to 5.00
21  COc1ccc(Oc2ccc(Cn3cc(CC(=O)O)c4ccccc43)cc2)cc1        > 5.00
22  O=C(O)Cc1cn(Cc2ccc(Oc3ccc(F)cc3F)cc2)c2ccccc12        > 5.00
23  COc1ccc(-c2cccc(Cc3[nH]c4ccccc4c3CC(=O)O)c2)cc1        > 5.00
24  Cc1cc([N+](=O)[O-])ccc1-n1cc(C(C(=O)O)c2ccccc2)c2cc(Br)ccc21 (stereo not drawn)        > 5.00
25  COC(=O)Cc1cn(-c2ccc([N+](=O)[O-])cc2C)c2ccc(Br)cc12        < 4.30
26  O=C(O)Cc1c(C(=O)c2ccc(-c3cccc(Cl)c3)cc2)[nH]c2ccccc12  4.30 to 5.00
27  O=C(Cc1cn(Cc2cccc(OCc3ccccc3)c2)c2ccc(OCc3ccccc3)cc12)N1CCCC1  4.30 to 5.00
28  O=C(O)Cc1cn(Cc2ccc(-c3ccccc3)cc2)c2ccc(Br)cc12        > 5.00
29  O=C(NCc1ccc2c(c1)c(Cc1nn[nH]n1)cn2Cc1csc2ccc(Cl)cc12)OCc1ccccc1        > 5.00
30  COc1cccc(-c2cccc(C(=O)c3[nH]c4ccccc4c3CC(=O)O)c2)c1  4.30 to 5.00
31  O=C(O)Cc1cn(Cc2csc3ccc(Cl)cc23)c2cc(N3CCCC(O)C3)ccc12 (stereo not drawn)  4.30 to 5.00
32  CN(Cc1cccc(Cl)c1)c1ccc(-n2cc(CC(=O)O)c3ccccc32)cc1        > 5.00
33  CC1CCN(C(=O)Cc2cn(Cc3cccc(OCc4ccccc4)c3)c3ccc(OCc4ccccc4)cc23)C1 (stereo not drawn)  4.30 to 5.00
